Where do these numbers come from? They come from PubChem BioAssay AID330.

tested on: P388 leukemia ip, CD2F1 mice, survival T/C; test: NCI In Vivo Anticancer Drug Screen. Data for tumor model P388 Leukemia (intraperitoneal) in CD2F1 (CDF1) mice; details: endpoint: median survival time; dose: 200.0 mg/kg/injection; schedule: Q04DX003 (ip); vehicle: saline; higher = longer survival
Inconclusive results and toxic doses are left out.

Line notation	T/C
O=S1(=O)CCCO1	118 % of control
COC(=O)C(C(=O)OC)=C1C(=O)OCC1(C)C	100 % of control
Cc1cnc(C)n2c(C)nnc12	96 % of control
O=C(c1ccccc1)N1CCCCC1	110 % of control

###

# T/C per record follows
tested on: P388 leukemia ip, CD2F1 mice, survival T/C; test: NCI In Vivo Anticancer Drug Screen. Data for tumor model P388 Leukemia (intraperitoneal) in CD2F1 (CDF1) mice; conditions: endpoint: median survival time; dose: 200.0 mg/kg/injection; schedule: Q01DX009 (ip); vehicle: saline; higher = longer survival
Toxic doses and inconclusive results are not listed.

Molecule	T/C
CCCCC[CH2][Ge]([CH2]CCC)([CH2]CCC)[CH]1CCCCC1	95 % of control
Clc1ccccc1C(c1ccccc1)(c1ccccc1)n1ccnc1	113 % of control
Cl[Si](Cl)(Cl)CCc1ccccn1	100 % of control
CC1CCC(C)(C(O)c2ccc(C(O)C3(C)CCC(C)C3(C)C)cc2)C1(C)C (stereo unspecified)	89 % of control
N#CNC(=O)c1cccnc1	99 % of control
Cc1ccc(S(=O)(=O)N/N=C/C(C)(c2ccccc2)c2ccccc2)cc1	97 % of control
